Each record here notes measured kon(serum)/kon(buffer).
- Tested System: recombinant human IL23 (human, UniProt Q9NPF7;P29460)
- Sequence (Q9NPF7 20-189, chain 1 of 2): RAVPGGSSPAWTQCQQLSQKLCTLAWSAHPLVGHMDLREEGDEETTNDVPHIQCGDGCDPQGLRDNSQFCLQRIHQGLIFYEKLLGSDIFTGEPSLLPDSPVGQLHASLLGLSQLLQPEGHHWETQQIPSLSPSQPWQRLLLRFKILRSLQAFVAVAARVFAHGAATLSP
- Sequence (P29460 23-328, chain 2 of 2): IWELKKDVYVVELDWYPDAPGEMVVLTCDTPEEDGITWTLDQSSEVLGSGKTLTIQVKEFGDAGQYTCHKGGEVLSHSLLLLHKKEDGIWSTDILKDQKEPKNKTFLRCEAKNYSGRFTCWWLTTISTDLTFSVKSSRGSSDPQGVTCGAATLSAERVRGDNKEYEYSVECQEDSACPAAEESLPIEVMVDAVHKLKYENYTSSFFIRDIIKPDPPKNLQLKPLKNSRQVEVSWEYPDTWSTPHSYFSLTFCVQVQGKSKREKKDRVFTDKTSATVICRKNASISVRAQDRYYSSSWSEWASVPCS
- Experiment Summary: BLI

BI 655069 (VH 05-Vk66 IgG1) (antibody, V domains shown) VH: QVQLVQSGAEVKKPGSSVKVSCKASGFTFTDQTIHWVRQAPGQGLEWMGYIYPRDDSPKYNENFKGKVTLTADKSTSTAYMELSSLRSEDTAVYYCAIPDRSGYAWFIYWGQGTLVTVSS VL: DIQMTQSPSSLSASVGDRVTITCKASRDVAIAVAWYQQKPGKVPKLLIYWASTRHTGVPSRFSGSGSRTDFTLTISSLQPEDVADYFCHQYSSYPFTFGSGTKLEIK ... 1.2

Entry under test: BI 655068 (VH 02-Vk65 IgG1) (antibody, V domains shown) VH: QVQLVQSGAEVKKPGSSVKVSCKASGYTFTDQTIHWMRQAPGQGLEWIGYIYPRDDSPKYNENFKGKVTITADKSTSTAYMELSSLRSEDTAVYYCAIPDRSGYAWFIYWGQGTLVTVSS VL: DIQMTQSPSSLSASVGDRVTITCKASRDVAIAVAWYQQKPGKVPKLLLFWASTRHTGVPDRFSGSGSGTDFTLTISSLQPEDLADYYCHQYSSYPFTFGQGTKLEIK . Its kon(serum)/kon(buffer) was 1

Entry under test: BI 655067 (VH 05-Vk65 IgG1) (antibody, V domains shown) VH: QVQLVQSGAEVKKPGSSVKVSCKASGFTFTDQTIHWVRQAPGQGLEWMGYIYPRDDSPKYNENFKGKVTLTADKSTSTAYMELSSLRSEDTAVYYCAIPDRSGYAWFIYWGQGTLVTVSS VL: DIQMTQSPSSLSASVGDRVTITCKASRDVAIAVAWYQQKPGKVPKLLLFWASTRHTGVPDRFSGSGSGTDFTLTISSLQPEDLADYYCHQYSSYPFTFGQGTKLEIK . Its kon(serum)/kon(buffer) was 1.2

Entry under test: BI 655066 (VH 02-Vk66 IgG1) (antibody, V domains shown) VH: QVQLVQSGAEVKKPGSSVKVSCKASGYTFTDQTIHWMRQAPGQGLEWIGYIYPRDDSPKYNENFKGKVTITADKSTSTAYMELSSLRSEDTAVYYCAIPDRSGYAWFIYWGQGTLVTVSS VL: DIQMTQSPSSLSASVGDRVTITCKASRDVAIAVAWYQQKPGKVPKLLIYWASTRHTGVPSRFSGSGSRTDFTLTISSLQPEDVADYFCHQYSSYPFTFGSGTKLEIK . Its kon(serum)/kon(buffer) was 1.2

# credit: paper PMC4622456
